The reported measurements were obtained from patent US20230114241A1.

# system.under.test: UniProt O95136
# Sequence (O95136 whole entry): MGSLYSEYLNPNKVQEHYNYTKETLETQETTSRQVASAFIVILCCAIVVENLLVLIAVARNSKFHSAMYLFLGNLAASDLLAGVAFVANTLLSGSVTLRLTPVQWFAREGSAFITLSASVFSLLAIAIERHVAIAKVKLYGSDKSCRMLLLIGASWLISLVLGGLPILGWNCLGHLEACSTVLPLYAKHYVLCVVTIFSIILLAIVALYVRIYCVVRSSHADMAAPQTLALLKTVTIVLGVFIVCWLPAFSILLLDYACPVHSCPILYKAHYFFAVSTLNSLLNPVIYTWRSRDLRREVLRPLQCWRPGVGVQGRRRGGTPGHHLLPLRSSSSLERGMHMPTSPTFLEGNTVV
# experimental.details: Selectivity: inositol monophosphate production (IP-one), S1P2 CHO-K1 cells
# Assay type: cell-based
# measurement.setup: inositol monophosphate accumulation; read-out: hS1P2 IP-one pEC50 (converted)
quantity.name: EC50

Illustrative cases are given below, each with its answer.
Cc1ccncc1-c1noc(-c2ccc3c(c2)nnn3C2CCC2)n1 [Compound 417]; < 10 µM
CC(C)n1nnc2cc(-c3nc(-c4cccc5c4OCO5)no3)ccc21 [Compound 32]; > 10 µM
CCC1(CC)CC(=O)c2cc(-c3nc(-c4ccnc(O)c4)no3)ccc2O1 [Compound 263]; > 10 µM

Query: Give its EC50 value. Item: CC(C)Nc1ccc(-c2nc(-c3ccc4oc(=O)[nH]c4c3)no2)cc1C#N [Compound 422]
Result: < 10 µM

Query: Entry CC(C)Nc1ccc(-c2nc(-c3ccc4c(c3)NC(=O)C4)no2)cc1C#N [Compound 496] please
Result: > 10 µM

Query: Entry Cc1ccccc1-c1nc(-c2ccc3c(c2)nnn3C(C)C)no1 [Compound 99] please
Result: > 10 µM

Query: Entry CCC1(CC)CC(=O)c2cc(-c3nc(-c4ccc5[nH]c(=O)oc5c4)no3)ccc2O1 [Compound 445] please
Result: < 10 µM

Query: Entry COc1cnccc1-c1nc(-c2ccc3c(ccn3C(C)C)c2)no1 [Compound 391] please
Result: < 10 µM

Query: Entry C=CCNc1ccc(-c2nc(-c3cn[nH]c3)no2)cc1C#N [Compound 252] please
Result: < 10 µM

Query: Entry CCC1(CC)CC(=O)c2cc(-c3nc(-c4ccccc4Cl)no3)ccc2O1 [Compound 221] please
Result: > 10 µM

Query: Entry N#Cc1cc(-c2nc(-c3ccc4oc(=O)[nH]c4c3)no2)ccc1NCC1CC1 [Compound 423] please
Result: < 10 µM
